METHOD DESCRIPTION: Cytotoxicity against human HET-1A cells assessed as cell viability at 500 uM after 24 hrs by MTT assay relative to control
Format: cell-based
READOUT KIND: viability at 24 h, 500 µM

COMPOUND	viability at 24 h, 500 µM
C[C@H](CCC(=O)O)[C@H]1CC[C@H]2[C@@H]3CC[C@@H]4C[C@H](N=[N+]=[N-])CC[C@]4(C)[C@H]3C[C@H](O)[C@]12C	30.7%
C[C@H](CC(=O)O)[C@H]1CC[C@H]2[C@@H]3[C@@H](O)C[C@@H]4C[C@H](O)CC[C@]4(C)[C@H]3CC[C@]12C [NORUCHOLIC ACID]	88.8%
C[C@H](CCC(=O)NCC(=O)O)[C@H]1CC[C@H]2[C@@H]3[C@@H](O)C[C@@H]4C[C@H](O)CC[C@]4(C)[C@H]3CC[C@]12C [GLYCOURSODEOXYCHOLIC ACID]	109%
C[C@H](CCC(=O)O)[C@H]1CC[C@H]2[C@@H]3[C@@H](O)C[C@@H]4C[C@H](O)CC[C@]4(C)[C@H]3CC[C@]12C [URSODIOL]	78.8%
C[C@H](C#N)[C@H]1CC[C@H]2[C@@H]3[C@@H](O)C[C@@H]4C[C@H](O)CC[C@]4(C)[C@H]3CC[C@]12C	80.5%
COC(=O)CC[C@@H](C)[C@H]1CC[C@H]2[C@@H]3CC[C@@H]4C[C@H](O)CC[C@]4(C)[C@H]3C[C@H](O)[C@]12C [METHYL DEOXYCHOLATE]	28.1%
C[C@H](CCCN=[N+]=[N-])[C@H]1CC[C@H]2[C@@H]3[C@@H](O)C[C@@H]4C[C@H](O)CC[C@]4(C)[C@H]3CC[C@]12C	75.9%
C[C@H](CCC(=O)O)[C@H]1CC[C@H]2[C@@H]3C(=O)C[C@@H]4CC(=O)CC[C@]4(C)[C@H]3CC[C@]12C	93.5%

Data request: Endpoint output: viability at 24 h, 500 µM of C[C@H](CCC(=O)NCC(=O)O)[C@H]1CC[C@H]2[C@@H]3[C@H](O)C[C@@H]4C[C@H](O)CC[C@]4(C)[C@H]3CC[C@]12C [GLYCOCHENODEOXYCHOLATE] . Value?
Data returned: 130%

Data request: Endpoint output: viability at 24 h, 500 µM of `C[C@H](CCC(N)=O)[C@H]1CC[C@H]2[C@@H]3CC[C@@H]4C[C@H](O)CC[C@]4(C)[C@H]3C[C@H](O)[C@]12C` . Value?
Data returned: 38.6%

Data request: Endpoint output: viability at 24 h, 500 µM of C[C@H](CCC(=O)NCC(=O)O)[C@H]1CC[C@H]2[C@@H]3CC[C@@H]4C[C@H](O)CC[C@]4(C)[C@H]3C[C@H](O)[C@]12C [GLYCODEOXYCHOLATE] . Value?
Data returned: 111%

---

viability at 24 h, 500 µM values, listed per item
METHOD DESCRIPTION: Cytotoxicity against human HuH7 cells assessed as cell viability at 500 uM after 24 hrs by MTT assay relative to control
Assay type: cell-based, Huh-7

In [3]: df
Out[3]:
                            compound_string  observed_measurement
0  C[C@H](CCC(=O)O)[C@H]1CC[C@H]2[C@@H]3[C@@H](N=[N+]=[N-])C[C@@H]4C[C@H](O)CC[C@]4(C)[C@H]3CC[C@]12C                 64.1%
1  C[C@H](CCC(=O)O)[C@H]1CC[C@H]2[C@@H]3CC[C@@H]4C[C@H](N=[N+]=[N-])CC[C@]4(C)[C@H]3C[C@H](O)[C@]12C                 37.1%
2  C[C@H](CCC(=O)O)[C@H]1CC[C@H]2[C@@H]3[C@H](O)C[C@@H]4C[C@H](O)CC[C@]4(C)[C@H]3CC[C@]12C                 72.3%
3  C[C@H](CCC(=O)O)[C@H]1CC[C@H]2[C@@H]3C(=O)C[C@@H]4CC(=O)CC[C@]4(C)[C@H]3CC[C@]12C                 54.6%
4  C[C@H](CCC(=O)O)[C@H]1CC[C@H]2[C@@H]3[C@@H](O)C[C@@H]4C[C@H](O)CC[C@]4(C)[C@H]3CC[C@]12C                   74%

Data request: Endpoint output: viability at 24 h, 500 µM of `C[C@H](CCC(=O)O)[C@H]1CC[C@H]2[C@@H]3[C@@H](O)C[C@@H]4C[C@H](O)CC[C@]4(C)[C@H]3C[C@H](O)[C@]12C` . Value?
Data returned: 82.3%

Data request: Endpoint output: viability at 24 h, 500 µM of `COC(=O)CC[C@@H](C)[C@H]1CC[C@H]2[C@@H]3[C@@H](O)C[C@@H]4C[C@H](O)CC[C@]4(C)[C@H]3CC[C@]12C` . Value?
Data returned: 81.2%

Data request: Endpoint output: viability at 24 h, 500 µM of `C[C@H](CCCN=[N+]=[N-])[C@H]1CC[C@H]2[C@@H]3[C@@H](O)C[C@@H]4C[C@H](O)CC[C@]4(C)[C@H]3CC[C@]12C` . Value?
Data returned: 45.1%

---

METHOD DESCRIPTION: Cytotoxicity against human HuH7 cells assessed as cell viability at 500 uM after 24 hrs by MTT assay relative to control
Assay type: cell-based, Huh-7
Just so you know, the groups by viability at 24 h, 500 µM go like this: L = under 50%, M = from 50% up to 90%, H = 90% and over

Examples with answers:
>>> print(df.to_string())
                                   molecule  class
0  C[C@H](CCC(N)=O)[C@H]1CC[C@H]2[C@@H]3CC[C@@H]4C[C@H](O)CC[C@]4(C)[C@H]3C[C@H](O)[C@]12C      L
1  C[C@H](CCC(=O)O)[C@H]1CC[C@H]2[C@@H]3CC[C@@H]4C[C@H](O)CC[C@]4(C)[C@H]3C[C@H](O)[C@]12C      M
2  C[C@H](CCC(=O)O)[C@H]1CC[C@H]2[C@@H]3C(=O)C[C@@H]4CC(=O)CC[C@]4(C)[C@H]3CC(=O)[C@]12C [DEHYDROCHOLIC ACID]      M
3  C[C@H](CCC(=O)O)[C@H]1CC[C@H]2[C@@H]3CC[C@@H]4C[C@@H](N=[N+]=[N-])CC[C@]4(C)[C@H]3C[C@H](O)[C@]12C      H
4  CC(=O)O[C@@H]1CC[C@@]2(C)[C@H](CC(=O)[C@@H]3[C@@H]2CC[C@]2(C)[C@@H]([C@H](C)CCC(=O)O)CC[C@@H]32)C1      M

Data request: Record `C[C@H](CCC(=O)O)[C@H]1CC[C@H]2[C@@H]3[C@@H](O)C[C@@H]4CCCC[C@]4(C)[C@H]3CC[C@]12C` — which class?
Data returned: L

Data request: Record `C[C@H](CCC(=O)O)[C@H]1CC[C@H]2[C@@H]3[C@@H](O)C[C@@H]4C[C@H](N=[N+]=[N-])CC[C@]4(C)[C@H]3CC[C@]12C` — which class?
Data returned: L

Data request: Record `C[C@H](CCCO)[C@H]1CC[C@H]2[C@@H]3[C@@H](O)C[C@@H]4C[C@H](O)CC[C@]4(C)[C@H]3CC[C@]12C` — which class?
Data returned: L

Data request: Record `C[C@H](CCC(=O)O)[C@H]1CC[C@H]2[C@@H]3C(=O)C[C@@H]4C[C@H](O)CC[C@]4(C)[C@H]3CC[C@]12C` — which class?
Data returned: M

Data request: Record `C[C@H](CC(=O)O)[C@H]1CC[C@H]2[C@@H]3[C@@H](O)C[C@@H]4C[C@H](O)CC[C@]4(C)[C@H]3CC[C@]12C` — which class?
Data returned: M

Data request: Record C[C@H](CCC(=O)NCC(=O)O)[C@H]1CC[C@H]2[C@@H]3[C@H](O)C[C@@H]4C[C@H](O)CC[C@]4(C)[C@H]3CC[C@]12C [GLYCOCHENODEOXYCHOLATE] — which class?
Data returned: H

Data request: Record `C[C@H](CCC(=O)O)[C@H]1CC[C@H]2[C@@H]3C[C@H](O)[C@@H]4C[C@H](O)CC[C@]4(C)[C@H]3CC[C@]12C` — which class?
Data returned: M

Data request: Record `C[C@H](CCC#N)[C@H]1CC[C@H]2[C@@H]3[C@@H](O)C[C@@H]4C[C@H](O)CC[C@]4(C)[C@H]3CC[C@]12C` — which class?
Data returned: M

Data origin: ChEMBL document CHEMBL1250512
